Kindly state melting point for each of the entries shown.

# compound, melting point
measured = [
    ("N#Cc1ccc(N2CCN(Cc3cnc4c(c3)NC(=O)[C@@H]3CCCN43)CC2)c(Cl)c1", "213 to 215 °C"),
]

Each of the following entries comes with a recorded value; kindly state melting point for each.
1. CN1CCN(CC2COCc3nc4c(N)nc5ccccc5c4n32)CC1 (stereo unspecified)
2. O=C(O)Cc1c(C(=O)c2ccc(Cl)cc2)[nH]c2cc(Cl)c(F)cc12
3. Cc1nc2c(-c3cccc(N4CCN(CCO)CC4)c3)cnn2c(N)c1-c1cccc(Cl)c1

1. 187 to 190 °C
2. 215 to 220 °C
3. 108 to 116 °C

Each of the following entries comes with a recorded value; kindly state melting point for each.
1. COC(=O)[C@@H]1[C@H](C(C)C)N1S(=O)(=O)c1ccc(C)cc1 (stereo partly specified)
2. CC(C)OC(=O)c1cc(Cl)c(Cl)c(-c2ccccc2)n1
3. Clc1ncn(COc2ccc(Oc3ccccc3)cc2)c1Cl
4. CCSC(=O)Cc1csc(N)n1
5. N#CC1CN1C(=O)NC(=O)C=Cc1ccccc1 (stereo unspecified)
6. COC=C(C(=O)OC)c1ccccc1C=Cc1cscn1

1: 52 to 54 °C; 2: 94 to 96 °C; 3: 82 to 83 °C; 4: 76 to 77 °C; 5: 134 to 136 °C; 6: 117 °C

melting point lookup needed for `OC(c1ccc2c(c1)CCN2)(C(F)(F)F)C(F)(F)F` , thanks.
161 to 162 °C

====

endpoint.label: melting point

# compound, assay.result
data = [
    ("CCCOC(=O)C(=O)Nc1ccccn1", "56 to 59 °C"),
]

Each of the following entries comes with a recorded value; kindly state melting point for each.
1. CC(CNc1nc2ccccc2o1)C(=O)NCCCN(C)Cc1ccc(Cl)c(Cl)c1 (stereo unspecified)
2. C=CC(=O)OCC(CCCCCCCCCCCOc1ccc(-c2cccc(F)c2F)cc1)COC(=O)C=C
3. O=[N+]([O-])c1ccc(Sc2ccc(Cl)cc2)nc1
4. COc1ccc2c(c1)C(C)(C)C(CO)O2 (stereo unspecified)
5. Brc1c(OCc2nnn[nH]2)ccc2cc(-c3csc(-c4ccccc4)n3)ccc12
6. C(#Cc1cccc(-c2cnccn2)c1)c1ccncc1
7. C#CC(=CC(=O)O)c1ccccc1
8. CC(C)(C(N)=O)c1ccc(OCc2ccccc2)cc1

1. 134 to 135 °C
2. 33.4 to 34.4 °C
3. 134 to 136 °C
4. 65 to 67 °C
5. 227 to 231 °C
6. 94 to 95 °C
7. 130 °C
8. 150 to 151 °C

Each of the following entries comes with a recorded value; kindly state melting point for each.
1. COc1cc2ncc(C#N)c(Nc3cccc(Br)c3)c2cc1OC
2. CS(=O)(=O)c1ccc(-c2cnc(-c3ccc(F)cc3)s2)s1

1: 224 to 228 °C; 2: 183 to 184 °C

====

Kindly state melting point for each of the entries shown.

Solved cases below.
# compound, endpoint.label, assay.result
data = [
    ("Fc1ccc(-c2coc(-c3cn([C@H]4CN5CCC4CC5)nn3)c2)cn1", "melting point", "210 °C"),
    ("CN1CCN(Cc2ccccc2C(F)(F)F)C(C2=NCCN2)C1 (stereo not given)", "melting point", "163 to 165 °C"),
    ("CN(C)S(=O)(=O)c1cccc2c1Sc1ccc(OC3CCCCO3)cc1N2CCCN1CCC(CCO)CC1 (stereo not given)", "melting point", "129 to 131 °C"),
    ("Oc1ccc(Nc2n[nH]c3ncnc(Nc4cccc(Cl)c4)c23)cc1", "melting point", "> 260 °C"),
]

melting point lookup needed for CC(C)CN1CCN(c2cc3ccccc3c(=O)[nH]2)CC1CO (stereo not given) , thanks.
130 to 132 °C

====

Kindly state melting point for each of the entries shown.

Solved cases below.
# compound, melting point
data = [
    ("O=C1CC(=O)OC(CCl)C1 (single isomer, unassigned; (-))", "98 to 99 °C"),
    ("N#Cc1ccc(OCc2ccc3c(c2)OCO3)cc1OC(C(=O)O)c1ccccc1Cl (racemic)", "144 to 145 °C"),
    ("CCOC(CN1CCN(c2cccc(-n3cnc4cc(C(C)=O)ccc43)c2)CC1)=NO", "154 to 156 °C"),
    ("COc1cc(OCCN2CCc3ccccc3C2)ccc1C=NNC(=O)c1ccc(O)c(N)c1", "162 to 164 °C"),
    ("CS(=O)(=O)c1nnc(C(F)F)s1", "59 °C"),
    ("CCCCCCC(=O)OCCOC(=O)NC1(C(=O)O)CC1", "113 °C"),
    ("c1nnc2cc3c(cc2c1NCC1CCCO1)OCO3 (stereo not given)", "196 to 198 °C"),
    ("N#Cc1cnc2cc(F)c(O)cc2c1Cl", "> 250 °C"),
]

Each of the following entries comes with a recorded value; kindly state melting point for each.
1. COc1ccccc1CCNC(=O)c1ccc2c(c1)C=CC(C)(C)O2
2. CC1(C(=O)N2C[C@H](Sc3ccc(OCC(F)(F)F)cc3C(F)(F)F)C[C@H]2C(=O)NC2(C#N)CC2)CC1
3. COC(=O)c1ccc(OCC(=O)c2ccc3c(c2)C(C)(C)CCS3)cc1O
4. CCCCOc1nc(N)c2[nH]c(=O)n(CCCCN(CCN3CCOCC3)Cc3cccc(CC(=O)OC)c3)c2n1
5. CCCCNC(=O)Nc1ccc(-n2ccnc2)cc1C(=O)NCC1CCN(C(c2ccccc2)c2ccccc2)CC1
6. O=C(O)c1ccc(C(=O)OC(c2ccc3c(c2)OCO3)c2ccc3c(c2)OCO3)s1

125 to 130 °C
66 to 76 °C
135 to 137 °C
189 to 190 °C
197 to 199 °C
141 to 148 °C

====

Kindly state melting point for each of the entries shown.
Answers are plain numbers, in °C.

Each of the following entries comes with a recorded value; kindly state melting point for each.
1. CNC(=O)NS(=O)(=O)c1cc(CCNC(=O)/C=C/c2cccs2)ccc1OCCOC
2. CSc1ccc2ccc(N3C(=O)c4ccccc4C3O)nc2n1 (stereo not given)
3. Cc1ccc(S(=O)(=O)N(C)c2ccc(Cl)cc2N)cc1
4. N=c1sc2cc(OC(F)(F)F)ccc2n1CCSc1ccncc1

1: 99; 2: 210; 3: 102; 4: 143

====

endpoint.label: melting point

# molecule, endpoint.label, assay.result
data = [
    ("Clc1ccc(CNc2ccccc2-n2ccnc2)c(Cl)c1", "melting point", "100 to 103 °C"),
]

Each of the following entries comes with a recorded value; kindly state melting point for each.
1. N#Cc1c(OCC(F)(F)F)nc(CO)nc1N1CCc2ccccc2CC1
2. CCCCCCCCNC(=O)n1nc(Oc2c(Cl)cc(C(F)(F)F)cc2Cl)cc1C
3. Cc1nc(C)c(C(=O)Nc2cc(Oc3ccc4nc(NC(=O)C5CC5)cn4n3)ccc2F)o1
4. CCOC(=O)c1c(Cl)[nH]c(=O)c(I)c1Oc1cc(C)cc(C)c1
5. CCCCn1nnc(NCc2ccc(-c3ccccc3-c3nnn[nH]3)cc2)c1C(=O)O
6. COc1ccc(Cl)cc1NC(=O)[C@H]1[C@H](c2ccc(S(N)(=O)=O)cc2)C12CCCC2 (relative stereo)
7. CCCC(=O)NCCCC1c2ccccc2C=Cc2ccccc21

106 to 110 °C
43 to 45 °C
202 °C
180 to 182 °C
154 to 155 °C
210 to 212 °C
76 to 80 °C

Each of the following entries comes with a recorded value; kindly state melting point for each.
1. S=C1Nc2ccc(Cl)cc2Nc2ccccc21
2. CC(C)Cn1c(-c2c(F)cccc2F)c(Cl)nc(-n2cccn2)c1=O
3. O=C(O)c1ccc2oc(Cc3cccnc3)cc2c1
4. COc1cc(OC)nc(NC(=O)NS(=O)(=O)c2ccccc2CCBr)n1
5. COC(=O)C(=O)c1ccc(OCCCc2ccc(F)cc2)cc1

["274 to 275 °C", "118 to 119 °C", "197 to 198 °C", "163 to 166 °C", "42 to 43 °C"]

Each of the following entries comes with a recorded value; kindly state melting point for each.
1. CC(=O)Nc1cc(F)ccc1O
2. NC(=O)c1cccc(Oc2ncccc2C(=O)NCc2ccccc2Cl)c1
3. CC(=O)Nc1ccc(N2CCN(c3ccc(O)cc3)CC2)cc1
4. C=C(c1ccc(I)cc1)C(O)(Cn1cncn1)c1ccccc1Cl (stereo unspecified)

1. 185 to 186 °C
2. 153 to 155 °C
3. 256 °C
4. 128 to 130 °C

Each of the following entries comes with a recorded value; kindly state melting point for each.
1. CCOC(=O)C1=C(C)N=C(SCc2ccc(OC)cc2)N(C(=O)OCC)C1c1ccccc1SC (stereo unspecified)
2. Cc1sc(N)c(C(=O)c2ccco2)c1C

1: 87 to 89 °C; 2: 95 to 97 °C

Each of the following entries comes with a recorded value; kindly state melting point for each.
1. O=Cc1ccc(OCCCCCCOc2ccc(C=O)cc2)cc1
2. CCCCC(CC)CNCCCOc1ccc2ccccc2c1 (stereo unspecified)

["110 to 111 °C", "97 °C"]
